Details: in ethanol, 295.65 K
ENDPOINT NAME: solubility (mole fraction)

>>> df
                   mol  experimental_result
0  O=C1NC(=O)c2ccccc21              0.00215

---

Details: in acetonitrile, 315.65 K
ENDPOINT NAME: solubility (mole fraction)

>>> print(df.to_string())
                   mol               endpoint_name  experimental_result
0  O=C1NC(=O)c2ccccc21  solubility (mole fraction)              0.00631

---

Details: in ethanol, 305.65 K
ENDPOINT NAME: solubility (mole fraction)

                   mol  experimental_result
0  O=C1NC(=O)c2ccccc21              0.00335

---

Settings: in methanol, 295.65 K
ENDPOINT NAME: solubility (mole fraction)

>>> print(df.to_string())
                   mol  experimental_result
0  O=C1NC(=O)c2ccccc21              0.00236

---

Settings: in acetone, 300.15 K
ENDPOINT NAME: solubility (mole fraction)

In [3]: df
Out[3]:
                   mol  experimental_result
0  O=C1NC(=O)c2ccccc21               0.0137

---

Details: in n-propanol, 285.65 K
ENDPOINT NAME: solubility (mole fraction)

                   mol  experimental_result
0  O=C1NC(=O)c2ccccc21              0.00173

---

Settings: in isopropanol, 293.15 K
ENDPOINT NAME: solubility (mole fraction)

In [3]: df
Out[3]:
                   mol  experimental_result
0  O=C1NC(=O)c2ccccc21              0.00247

---

Settings: in isobutanol, 285.65 K
ENDPOINT NAME: solubility (mole fraction)

>>> print(df.to_string())
                   mol  experimental_result
0  O=C1NC(=O)c2ccccc21              0.00155

---

Conditions: in isobutanol, 300.15 K
ENDPOINT NAME: solubility (mole fraction)

In [3]: df
Out[3]:
                   mol  experimental_result
0  O=C1NC(=O)c2ccccc21               0.0026

---

Settings: in ethyl acetate, 293.15 K
ENDPOINT NAME: solubility (mole fraction)

>>> print(df.to_string())
                   mol  experimental_result
0  O=C1NC(=O)c2ccccc21              0.00615

---

Conditions: in methanol, 283.15 K
ENDPOINT NAME: solubility (mole fraction)

>>> df
                   mol  experimental_result
0  O=C1NC(=O)c2ccccc21              0.00129

---

Conditions: in n-propanol, 298.15 K
ENDPOINT NAME: solubility (mole fraction)

                   mol               endpoint_name  experimental_result
0  O=C1NC(=O)c2ccccc21  solubility (mole fraction)              0.00263

---

Conditions: in ethanol, 300.15 K
ENDPOINT NAME: solubility (mole fraction)

                   mol  experimental_result
0  O=C1NC(=O)c2ccccc21               0.0026
